Tested on: BV-173
Test description: cell viability (% survival relative to DMSO control, bortezomib = 0%); higher = less cytotoxic
Test context: 10 nM; 72 h
Measured cell viability by item
Give the value in % but do not write % after it.

Examples from the recorded data:
Compound	Output unit	cell viability
Cc1ccc(S(=O)(=O)NC2c3ccccc3Oc3ccccc32)cc1	%	91.2
CC(C)Cc1sc(N)nc1-c1ccc(P(=O)(O)O)o1	%	111
Cc1noc2c1-c1ccccc1C(c1ccc(Cl)cc1)=N[C@H]2CC(N)=O	%	87.8
C1CCC(C(CC2CCCCN2)C2CCCCC2)CC1.O=C(O)/C=C\C(=O)O (centres undefined)	%	96.1
CCOC(=O)[C@@]1(CCCCCCOc2ccc(Cl)cc2)CO1	%	105

Qu. Report cell viability for O=C(O)CC[C@H](NC(=O)c1ccc([N+](=O)[O-])cc1)C(=O)O [(S)-2-(4-Nitrobenzamido)pentanedioic acid]
Ans. 108

Qu. Report cell viability for C#Cc1cnc(O)nc1O
Ans. 115

Qu. Report cell viability for O=C(c1ccc(OCCN2CCCCC2)cc1)c1c(-c2ccc(O)cc2)sc2cc(O)ccc12
Ans. 95.9

Qu. Report cell viability for O=C(O)c1cc2sccc2[nH]1 [4H-thieno[3,2-b]pyrrole-5-carboxylic acid]
Ans. 102

Qu. Report cell viability for O=C1Nc2ccccc2/C1=C\NCCc1ccc(O)c(O)c1
Ans. 103
